Provide the reported MTD at 14 days of each item.
experiment-summary: Maximum tolerated dose (MTD)
condition-summary: female, Syrian, hamster, in vivo, ip
Only the number, expressed in mg/kg, is required.

So what's the measured MTD at 14 days for this one? `O=C(Nc1cc(F)cc(C(F)(F)F)c1)c1cc(Cl)ccc1O` 12.5

Looking for the measured MTD at 14 days of `CC1(Nc2ccc(NC(=O)c3cc(Cl)ccc3O)c(Cl)c2)CCCC1` , can you help? 150

I'd like to know its MTD at 14 days. The compound in question is `CC(C)[C@H](NC(=O)c1cc(Cl)ccc1O)C(=O)Nc1ccc([N+](=O)[O-])cc1Cl` 50

The values you see were collected from patent US20230140290A1.
